Biological target: UniProtKB P0A070
Sequence (P0A070 whole entry): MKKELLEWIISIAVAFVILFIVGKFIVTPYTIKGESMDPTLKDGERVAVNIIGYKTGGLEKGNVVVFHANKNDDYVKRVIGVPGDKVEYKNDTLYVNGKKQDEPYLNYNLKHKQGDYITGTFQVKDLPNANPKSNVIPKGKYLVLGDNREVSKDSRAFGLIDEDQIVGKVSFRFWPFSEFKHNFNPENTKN
Assay: biochemical
Conditions: IC 50 (nM) S. aureus, 20 μM substrate, 10 minutes preincubation
*1 amine or outer side, *2 acyl side, *3 side chain or, on linkers, in order; H or OH if unused. Where a SMILES comes first, the peptide text is derived from it. [ ]: non-standard residue; d: D form. The star is where a group is joined. boroAla((+)-pinanediol) = C[C@H](N*)B1O[C@@H]2C[C@@H]3C[C@@H](C3(C)C)[C@]2(C)O1; Benzoyl(4-(4-Cl-Ph)) = O=C(c1ccc(-c2ccc(Cl)cc2)cc1)*; X1 = C[C@H](N[*:1])C(=O)C(=O)[*:2]; X3 = CCCCc1ccc(C2CCN(*)CC2)cc1; NHPhenethyl = c1ccc(CCN*)cc1; X9 = CC1(c2ccccc2)CCN(*)CC1; X4 = c1ccc(C2CCN(*)CC2)cc1; X6 = NCCCCCCCCCCCCCCC(=O)*; boroAla = C[C@H](N*)B(O)O; Dab = NCC[C@H](N)C(=O)O; Dap = NC[C@H](N)C(=O)O; CO = O=C([*:1])[*:2]; NHiPr = CC(C)N*
property_name: IC50 (nM)
Express it in nM; write the number only.

[
  {
    "compound": "C[C@H](NC(=O)[C@H](CCCCN)NC(=O)[C@H](C)NC(=O)[C@@H](NC(=O)[C@H](CCCCN)NC(=O)N1CCC(C)(c2ccccc2)CC1)[C@@H](C)O)B1O[C@@H]2C[C@@H]3C[C@@H](C3(C)C)[C@]2(C)O1 [Compound 130] ({X9-CO}-KTAK-{boroAla((+)-pinanediol)})",
    "property_name": "IC50",
    "unit": "nM",
    "numeric_result": 280
  },
  {
    "compound": "C[C@H](NC(=O)[C@H](CCCCN)NC(=O)[C@H](C)NC(=O)[C@@H](NC(=O)[C@H](CCCCN)NC(=O)N1CCC(c2ccccc2)CC1)[C@@H](C)O)B1O[C@@H]2C[C@@H]3C[C@@H](C3(C)C)[C@]2(C)O1 [Compound 126] ({X4-CO}-KTAK-{boroAla((+)-pinanediol)})",
    "property_name": "IC50",
    "unit": "nM",
    "numeric_result": 250
  },
  {
    "compound": "CCCCc1ccc(C2CCN(C(=O)N[C@@H](CCCCN)C(=O)N[C@H](C(=O)N[C@@H](C)C(=O)N[C@@H](CCCCN)C(=O)N[C@@H](C)B3O[C@@H]4C[C@@H]5C[C@@H](C5(C)C)[C@]4(C)O3)[C@@H](C)O)CC2)cc1 [Compound 127] ({X3-CO}-KTAK-{boroAla((+)-pinanediol)})",
    "property_name": "IC50",
    "unit": "nM",
    "numeric_result": 210
  }
]

Summary for this compound, C[C@H](NC(=O)[C@H](CCCCN)NC(=O)[C@H](C)NC(=O)[C@@H](NC(=O)[C@H](CCN)NC(=O)CCCCCCCCCCCCCCN)[C@@H](C)O)B1O[C@@H]2C[C@@H]3C[C@@H](C3(C)C)[C@]2(C)O1 [Compound 116] (X6-[Dab]TAK-{boroAla((+)-pinanediol)}) : IC50 is 480

Quick note, IC50 for CC(C)NC(=O)C(=O)[C@H](C)NC(=O)[C@H](CCCCN)NC(=O)[C@H](C)NC(=O)[C@@H](NC(=O)[C@H](CN)NC(=O)c1ccc(-c2ccc(Cl)cc2)cc1)[C@@H](C)O [Compound 103] ({Benzoyl(4-(4-Cl-Ph))}-[Dap]TAK[X1]-NHiPr) landed at 1400

The measured IC50 associated with C[C@H](NC(=O)[C@@H](NC(=O)[C@H](CN)NC(=O)c1ccc(-c2ccc(Cl)cc2)cc1)[C@@H](C)O)C(=O)N[C@@H](CCCCN)C(=O)N[C@@H](C)C(=O)C(=O)NCCc1ccccc1 [Compound 110] ({Benzoyl(4-(4-Cl-Ph))}-[Dap]TAK[X1]-NHPhenethyl) reads 3800

Entry under test: C[C@H](NC(=O)[C@H](CCCCN)NC(=O)[C@H](C)NC(=O)[C@@H](NC(=O)[C@H](CCN)NC(=O)c1ccc(-c2ccc(Cl)cc2)cc1)[C@@H](C)O)B(O)O [Compound 119] ({Benzoyl(4-(4-Cl-Ph))}-[Dab]TAK-boroAla) . Its IC50 was 120
